test: gradient 5% acetonitrile 3 min, to 50% in 2 min, to 85% in 15 min, held 3 min, 100 µL/min; settings: column: Zorbax Extend-C18 2.1 x 50 mm; eluents: water / acetonitrile, 0.1% formic acid
RP-LC retention time strictly under 700 s means condition met; at 700 s or over means condition not met.

A record lists CCN1C(=O)Cc2ccccc2C1C(=O)NCc1cc(F)ccc1F (stereo not given) . Is its RP-LC retention time below 700 s?
condition not met

Dear reviewer, please state whether O=C(NCc1ccccc1C(F)(F)F)C1CCN(c2cc(N3CCOCC3)ncn2)CC1 has RP-LC retention time strictly beneath 700 s.
condition met

A record lists CCOCCCNC(=O)C1CCN(c2nnc3cccc(C)n23)CC1 . Is its RP-LC retention time below 700 s?
condition met

Lab note: confirm whether the reported RP-LC retention time for this molecule is below 700 s, equality not counting. molecule: CCCc1nnc(NC(=O)c2ccc3[nH]c(C)cc(=O)c3c2)s1
condition met

Confirm or reject: RP-LC retention time of COc1ccc(OC)c(CNC(=O)C2=C3CCCN3c3ccc(F)cc3S2(=O)=O)c1 lies strictly below 700 s
condition not met

Is the reported RP-LC retention time for COc1ccc(C2CC(=O)c3cnc(Nc4nc(C)c5ccc(C)cc5n4)nc3C2)cc1 (stereo not given) strictly below 700 s?
condition met

Hello, I'm reviewing records and need to know if RP-LC retention time of CC1CCCN(c2ccc(NC(=O)c3cccs3)cc2C(=O)O)C1 (stereo not given) is below 700 s. Could you check?
condition met

Could you please tell me whether RP-LC retention time recorded for O=C(NCc1n[nH]c(=O)c2ccccc12)C(=O)N1CCCCC1 is less than 700 s?
condition met

Does the reported RP-LC retention time of the following molecule sit strictly below 700 s? Cc1nc(-c2ccc(C(=O)NC(C)C)cc2)cs1
condition not met

hey, is RP-LC retention time for COC(=O)CNC(=O)N1CCCC1c1cccc(C)c1 (stereo not given) lower than 700 s or not?
condition not met

Please determine if CCOc1ccc(NC(=O)c2cn3c4c(ccc(Cl)c4c2=O)OCC3)cc1 is below 700 s in terms of RP-LC retention time.
condition met

Is RP-LC retention time strictly under 700 s for the entry COc1cccc(-c2cc(C(=O)N3CCN(c4ncccn4)CC3)n(C)n2)c1 ?
condition not met

Confirm or reject: RP-LC retention time of Cc1cc(N2CCCCCC2)n2nc(CN3CCCCC3C)nc2n1 (stereo not given) lies strictly below 700 s
condition met

In plain terms, does O=S(=O)(NCc1ccc(F)cc1)c1ccccc1-c1nc(-c2ccc(F)cc2)no1 come in under 700 s for RP-LC retention time?
condition not met

====

test: gradient 5% acetonitrile 3 min, to 50% in 2 min, to 85% in 15 min, held 3 min, 100 µL/min; details: column: Zorbax Extend-C18 2.1 x 50 mm; eluents: water / acetonitrile, 0.1% formic acid
Kindly supply the reported RP-LC retention time values for the records listed here.
Answer format: numeric, s implied, no suffix.

The compound listed as O=C(c1ccc(Oc2ccccc2)cc1)N1CC(c2nc3ccccc3[nH]2)C1 shows RP-LC retention time equal to 623

The compound c1ccc(OCc2cn(CCC3CCCCN3)nn2)cc1 (stereo not given) showed RP-LC retention time equal to 552

Noted for O=C(c1ccoc1)N1CCOc2ccc(N3CCOCC3)cc2C1 : its RP-LC retention time reads 678

Kindly note the recorded RP-LC retention time for O=C(Cc1csc(SCc2ccncc2)n1)N1CCN(c2ccccc2)CC1 , which is 582

GET /value?item= Cc1ccc(-c2ccc(N3CCCC(C(=O)N4CCCC4)C3)nn2)cc1 (stereo not given) &field=RP-LC retention time returns 647

RP-LC retention time measured on COc1ccccc1OCC(=O)NCCCS(=O)(=O)N1CCN(c2ccccc2)CC1 = 796

Note to self: RP-LC retention time recorded for Cc1noc(C2(NC(=O)c3ccc[nH]c3=O)CCCCC2)n1 was 621

// field: RP-LC retention time; key: O=C(CCc1c(-c2ccc(Br)cc2)nc2ccccn12)NCc1cccc(F)c1 ; value = 677

Sure, the documented RP-LC retention time for Cc1ccc(C(=O)N2CCCn3cc(-c4ccccc4F)nc32)cn1 is 627

Documented RP-LC retention time of CCNC(=O)c1cccc(Nc2c(-c3ccc(SC)cc3)nc3cnccn23)c1 : 887
